Biological target: CaHof1
Assay: SPOT peptide array binding signal intensity (averaged, normalized) (arbitrary units (background-subtracted, floor 0; scale differs between SH3 domains)); higher = stronger binding of the SH3 domain to the peptide
assay_endpoint: SPOT peptide array binding signal intensity

{"columns": ["binder", "endpoint_value"],
 "data": [
  ["APKHAPPPVPNETDN", "≤ 0"],
  ["RRARRQMGIPTISQV", "≤ 0"],
  ["KTITLEVESSDTIDN", "≤ 0"],
  ["RSRRSSFAYPQQVAI", "≤ 0"]
]}
